Attribution: PubChem BioAssay AID1159580

# experimentalDetails: chemical genetic growth profiling, strain panel (AID 1159580);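 further: tested at 20 µM; growth read once vehicle control cultures reached saturation at 30 °C; 1 = growth at the plate median or of vehicle wells; lower values mean less growth of the strain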
# assayContext: S. cerevisiae deletion strains, growth OD, locus YOR083W, strain WHI5 (second series), hits give low values
In all, about 5,500 compounds went through this assay and about 2,000 (36%) were called active. Roughly 18% stayed inconclusive and do not appear here. The list shows a part of the results.
measurementLabel: normalized growth

molecule="CC(=O)OCC1=C(C(=O)O)N2C(=O)C(NC(=O)Cc3cccs3)C2SC1 (stereo unspecified)" recordedmeasurement=1.05
molecule="NC(=NCCCC(N)C(=O)O)N[N+](=O)[O-] (stereo unspecified)" recordedmeasurement=1.02
molecule="CN(C)CCC(c1ccc(Br)cc1)c1ccccn1 (stereo unspecified)" recordedmeasurement=1.01
molecule="NC(CCCP(=O)(O)O)C(=O)O (stereo unspecified)" recordedmeasurement=1.01
molecule=CCN1CCC[C@H]1CNC(=O)c1c(OC)ccc(I)c1O recordedmeasurement=0.974
molecule="CSc1ccc2c(c1)N(CCC1CCCCN1C)c1ccccc1S2 (stereo unspecified)" recordedmeasurement=0.774
molecule="CC(CN(C)C)CN1c2ccccc2CCc2ccccc21 (stereo unspecified)" recordedmeasurement=1.05
molecule=O=c1cc(-c2ccc(O)cc2)oc2cc(O)cc(O)c12 recordedmeasurement=0.954
molecule=CC12CC3CC(C)(C1)CC(N)(C3)C2 recordedmeasurement=1.03
molecule="C#CC(N)CCC(=O)O (stereo unspecified)" recordedmeasurement=0.988
molecule=C#CCN(C)CCCOc1ccc(Cl)cc1Cl recordedmeasurement=0.896
molecule=CNCCCN1c2ccccc2CCc2ccccc21 recordedmeasurement=1.03
molecule="NCC(CC(=O)O)c1ccc(Cl)cc1 (stereo unspecified)" recordedmeasurement=1.04
molecule="Nc1ccn([C@@H]2O[C@H](CO)[C@@H](O)C2O)c(=O)n1 (stereo partly specified)" recordedmeasurement=1.05
molecule="CC(CN1c2ccccc2Sc2ccccc21)N(C)C (stereo unspecified)" recordedmeasurement=1.02
molecule=COc1ccc(C(=O)N2CCCC2=O)cc1 recordedmeasurement=1.02
molecule="CS(=N)(=O)CC[C@H](N)C(=O)O (stereo partly specified)" recordedmeasurement=0.989
molecule=CCn1c(=O)c2[nH]c(-c3ccccc3)nc2n(CC)c1=O recordedmeasurement=1.01
molecule=CC1CCN(CC[C@H]2CCCN2S(=O)(=O)c2cccc(O)c2)CC1 recordedmeasurement=1.03
molecule=CCCC(C(=O)OCCN(CC)CC)(c1ccccc1)c1ccccc1 recordedmeasurement=0.993
molecule=O=c1cc(-c2ccc(O)c(O)c2)oc2cc(O)cc(O)c12 recordedmeasurement=0.966
molecule="COc1c2c(nc3ccccc13)OC(C(C)(O)CO)C2 (stereo unspecified)" recordedmeasurement=1
molecule=CCCN(CCC)CCc1c[nH]c2ccc(C(N)=O)cc12 recordedmeasurement=1.01
molecule=C[C@H]1C2Cc3ccc(O)cc3[C@]1(C)CCN2CC1CC1 recordedmeasurement=1.04
molecule=C[C@H](N)CN1CCc2ccc(Br)cc21 recordedmeasurement=1
molecule=CCCn1c(=O)c2[nH]c(-c3ccc(OCC(=O)Nc4ccc(C#N)cc4)cc3)nc2n(CCC)c1=O recordedmeasurement=0.992

----------
# experimentalDetails: chemical genetic growth profiling, strain panel (AID 1159580)
# assayContext: S. cerevisiae deletion strains, growth OD, locus YMR058W, strain fet3, hits give low values
Hit rate of the full screen: of about 5,500 compounds, about 2,000 (36%) were called active. Another 18% or so got no clear call; they are omitted. The list shows a part of the results.
measurementLabel: normalized growth

compound=O=c1cc(-c2cc(O)c(O)c(O)c2)oc2cc(O)cc(O)c12 recordedmeasurement=0.941
compound=CO[C@]12C[C@@H](COC(=O)c3cncc(Br)c3)CN(C)[C@@H]1Cc1cn(C)c3cccc2c13 recordedmeasurement=0.992
compound="C=C1C2CCC3(C)C(c4ccoc4)OC(=O)CC13OC1CC(OC(C)=O)C(C)(C)C(CC(=O)OC)C12C (stereo not given)" recordedmeasurement=1.02
compound=O=c1cc(-c2ccc(O)cc2)oc2cc(O)cc(O)c12 recordedmeasurement=0.97
compound="C=C1C2=CC(=O)O[C@@H](c3ccoc3)[C@]2(C)CCC1[C@@]1(C)C=CC(=O)C(C)(C)[C@@H]1CC(=O)OC (stereo not given in full)" recordedmeasurement=1
compound="C=C1C(C2(C)C=CC(=O)C(C)(C)C2CC(=O)OC)CC[C@@]2(C)[C@H](c3ccoc3)OC(=O)C3OC132 (stereo not given in full)" recordedmeasurement=0.994
compound=Cc1cc(=O)oc2c(O)c(O)ccc12 recordedmeasurement=0.964
compound=CC(=O)N=c1sc(S(N)(=O)=O)nn1C recordedmeasurement=1.01
compound=COc1cc(C)c(C(=O)Oc2cc(C)c(C(=O)O)c(O)c2C)c(OC)c1C recordedmeasurement=0.984
compound=O=c1cc(-c2ccc(O)cc2)oc2cc(O)ccc12 recordedmeasurement=0.965

----------
# experimentalDetails: chemical genetic growth profiling, strain panel (AID 1159580)
# assayContext: S. cerevisiae deletion strains, growth OD, locus YGR135W, strain pre9, hits give low values
Screen size: about 5,500 compounds; about 2,000 (36%) were called active. Another 18% or so got no clear call; they are omitted. The list shows a part of the results.
measurementLabel: normalized growth

compound=N[C@@H](Cc1cc(I)c(Oc2ccc(O)c(I)c2)c(I)c1)C(=O)O recordedmeasurement=0.991
compound=COc1ccc(C(=O)N2CCCC2=O)cc1 recordedmeasurement=0.981
compound="CCCCCC1C(=O)CCC1CC(=O)O (configuration not stated)" recordedmeasurement=0.994
compound="C=C1C2CC[C@@]3(C)[C@H](c4ccoc4)OC(=O)C[C@]13O[C@H]1CC(O)C(C)(C)C(CC(=O)OC)[C@@]21C (some centres not stated)" recordedmeasurement=1.01
compound=N[C@H](Cc1ccccc1)C(=O)O recordedmeasurement=1
compound=Cc1cccc(Nc2ccncc2S(=O)(=O)NC(=O)NC(C)C)c1 recordedmeasurement=1.01
compound=CO[C@]12C[C@@H](COC(=O)c3cncc(Br)c3)CN(C)[C@@H]1Cc1cn(C)c3cccc2c13 recordedmeasurement=0.993

----------
# experimentalDetails: chemical genetic growth profiling, strain panel (AID 1159580);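 further: tested at 20 µM; growth read once vehicle control cultures reached saturation at 30 °C; 1 = growth at the plate median or of vehicle wells; lower values mean less growth of the strain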
# assayContext: S. cerevisiae deletion strains, growth OD, locus YLR027C, strain aat2
About 2,000 (36%) of roughly 5,500 compounds were called active. Not shown: some 18% with an inconclusive outcome. Rule as the data show it: active = normalized growth mostly below about 0.91 (no sharp cut-off); inconclusive = no clear call, values can overlap the other calls; inactive = mostly above about 0.92. The list shows a part of the results.
Classes used: TRUE for active, FALSE for inactive

compound="CC(CCC(=O)O)[C@H]1CCC2C3C[C@H](O)[C@@H]4C[C@H](O)CC[C@]4(C)C3CC[C@@]21C (some centres undefined)" assignedlabel=FALSE
compound="COC(=O)CCC(C)C1CCC2C3CC[C@@H]4C[C@H](O)CC[C@]4(C)C3C[C@H](O)[C@]12C (some centres undefined)" assignedlabel=TRUE
compound="CC[C@H](CCC(C)[C@H]1CCC2C3CCC4C[C@@H](O)CC[C@]4(C)C3CC[C@@]21C)C(C)C (some centres undefined)" assignedlabel=FALSE
compound="C[C@H](CCC(=O)O)[C@H]1CCC2C3C(CC[C@@]21C)[C@@]1(C)CC[C@@H](O)C[C@H]1C[C@@H]3O (some centres undefined)" assignedlabel=FALSE

----------
# experimentalDetails: chemical genetic growth profiling, strain panel (AID 1159580);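 further: tested at 20 µM; growth read once vehicle control cultures reached saturation at 30 °C; 1 = growth at the plate median or of vehicle wells; lower values mean less growth of the strain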
# assayContext: S. cerevisiae deletion strains, growth OD, locus YMR078C, strain ctf18, hits give low values
Hit rate of the full screen: of about 5,500 compounds, about 2,000 (36%) were called active. Another 18% or so got no clear call; they are omitted. The list shows a part of the results.
Rule: normalized growth below 1 gives TRUE, anything at or above gives FALSE.

compound="CCCCCC1C(=O)CCC1CC(=O)OC (configuration not stated)" assignedlabel=TRUE
compound=O=c1cc(-c2ccccc2)oc2c(O)c(O)ccc12 assignedlabel=TRUE
compound=Cc1cccc(Nc2ccncc2S(=O)(=O)NC(=O)NC(C)C)c1 assignedlabel=FALSE
compound=NNCCc1ccccc1 assignedlabel=TRUE
compound="CC1(C)C(O)CC(O)C2(C)C1CC(O)C1(C)C2CCC2(C)C(c3ccoc3)OC(=O)C3OC321 (configuration not stated)" assignedlabel=FALSE
compound="C[C@H](CCC(=O)O)[C@H]1CCC2C3C(CC[C@@]21C)[C@@]1(C)CC[C@@H](O)C[C@H]1C[C@H]3O (some centres not stated)" assignedlabel=FALSE

----------
# normalized growth annotations
# experimentalDetails: chemical genetic growth profiling, strain panel (AID 1159580);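 further: tested at 20 µM; growth read once vehicle control cultures reached saturation at 30 °C; 1 = growth at the plate median or of vehicle wells; lower values mean less growth of the strain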
# assayContext: S. cerevisiae deletion strains, growth OD, locus YLR133W, strain CKI1, hits give low values
Out of some 5,500 compounds screened, about 2,000 (36%) were called active. Another 18% or so got no clear call; they are omitted. This is one part of the list.
measurementLabel: normalized growth

compound=N#Cc1ccc(NC(=O)Nc2cccc3ccccc23)cc1 recordedmeasurement=0.913
compound="Cc1ccc(N2C(=O)CSC2c2ccc(Cl)c(Cl)c2)cc1Cl (stereo unspecified)" recordedmeasurement=0.947
compound=O=C(Nc1cccc2ccccc12)c1ccccc1O recordedmeasurement=0.595
compound=O=[N+]([O-])c1ccc(-c2csc(Nc3ccncc3)n2)cc1 recordedmeasurement=0.976
compound=Cc1c(S(=O)(=O)c2ccc(Cl)cc2)csc1C(=O)NNc1cccc(Cl)c1 recordedmeasurement=0.81
compound=C/C(=N/Nc1ccccc1)c1cc(Cl)cc(Cl)c1O recordedmeasurement=0.731
compound="O=C1CSC(c2ccc(C(F)(F)F)cc2)N1c1ccc(C(F)(F)F)cc1 (stereo unspecified)" recordedmeasurement=0.949
compound=S=C(Nc1cc(Cl)c(Cl)cc1Cl)Nc1ccccc1Br recordedmeasurement=0.861
compound=O=C1/C(=C/c2ccc(C(F)(F)F)cc2)COc2ccccc21 recordedmeasurement=0.916
compound=CSC(=NNc1ccccc1)NC(=O)c1c(Cl)cccc1Cl recordedmeasurement=0.872
compound="COc1ccc(CC2CCC(=NOC(=O)c3c(Cl)cccc3Cl)CC2)cc1 (stereo unspecified)" recordedmeasurement=0.98
